Origin of the recorded values: the PolyMetriX glass transition set

I'd appreciate it if you could supply glass transition temperature values for the items below.
Please respond with the number in °C and leave the unit unwritten.

Which glass transition temperature is listed for *CC(*)c1ccc(Cl)c(F)c1 (repeat unit) ?
122

Here is the next compound: *Oc1ccc(NC(=O)c2cccc(C(=O)Nc3ccc(*)cc3)c2)cc1 (repeat unit)
264.00

Same thing, different compound: *CC(*)c1ccc(C(O)C(F)(F)F)cc1 (repeat unit)
110.00

Further, for *CCCCCCCCCCCC(=O)Oc1ccc(C(C)(C)c2ccc(OC(=O)c3ccc4c(c3)C(=O)N(*)C4=O)cc2)cc1 (repeat unit) ?
93.00

Item: *Oc1ccc(C(*)=O)cc1 (repeat unit) [Poly(p-hydroxybenzoate)]
147

Then what about the compound *c1cccc(N2C(=O)c3cccc(Oc4ccc(Oc5cccc6c5C(=O)N(*)C6=O)cc4)c3C2=O)c1 (repeat unit) ?
259.00

What about this compound? *OC(C)C#CC#CC(C)OC(=O)c1ccc(C(*)=O)cc1 (repeat unit)
133.00

Ok, now *c1ccc2oc(-c3ccc(Oc4ccc(-c5nc6cc(C(*)(C(F)(F)F)C(F)(F)F)ccc6o5)cc4)cc3)nc2c1 (repeat unit)
303.00

And *C(=O)OCCCCCCCCCCCCCCCCCCCCCCOC(=O)c1ccc(N2C(=O)c3ccc(*)cc3C2=O)cc1 (repeat unit) ?
44.00

Try this compound too: *Oc1ccc(C2(c3ccc(OC(=O)OC4C(C)(C)C(OC(*)=O)C4(C)C)cc3)c3ccccc3-c3ccccc32)cc1 (repeat unit)
214.00

Entry *O[Si](C)(C)O[Si](C)(C)OC(C)CCCCC(*)C (repeat unit) please
-87.00

What would you report for *C(=O)Nc1ccc(C2(c3ccc(NC(=O)c4ccc5c(c4)C(=O)N(c4ccc(Oc6cccc(Oc7ccc(N8C(=O)c9ccc(*)cc9C8=O)cc7)c6)cc4)C5=O)cc3)c3ccccc3-c3ccccc32)cc1 (repeat unit) ?
278.00

Likewise for *c1cccc(OCCCCCCCCCCCCOc2cccc(N3C(=O)c4ccc(-c5cccc6c5C(=O)N(*)C6=O)cc4C3=O)c2)c1 (repeat unit) ?
116.00

Item: *Oc1ccc(C(c2ccc(OC(*)=O)cc2)C(Cl)(Cl)Cl)cc1 (repeat unit)
230.00

What do you have for *Oc1ccc(C2(c3ccc(Oc4ccc(C(=O)C(=O)c5ccc(*)cc5)cc4)cc3)c3ccccc3-c3ccccc32)cc1 (repeat unit) ?
242.00

Next compound up: *Oc1ccc(P(C)(=O)c2ccc(Oc3ccc(P(=O)(c4ccccc4)c4ccc(*)cc4)cc3)cc2)cc1 (repeat unit)
238.00

How about *CCSCc1ccc(Cc2ccc(CSCCOC(=O)CSCc3ccc(Cc4ccc(CSCC(=O)O*)cc4)cc3)cc2)cc1 (repeat unit) ?
14.00

Similarly, *Nc1ccc(NC(=O)c2ccc(NC(=O)CCCCCCCCCCC(=O)Nc3ccc(C(*)=O)cc3)cc2)cc1C(=O)OCCCCCCCCCCCCCCCC (repeat unit) ?
199.50

Lookup *c1cccc(Oc2cccc(Oc3cccc(Oc4cccc(Oc5cccc(N6C(=O)c7ccc(Oc8ccc9c(c8)C(=O)N(*)C9=O)cc7C6=O)c5)c4C#N)c3)c2C#N)c1 (repeat unit)
176.00

Again, but for *C(=O)Nc1ccc(NC(=O)c2ccc(N3C(=O)c4ccc(*)cc4C3=O)cc2)cc1 (repeat unit)
297.50

Cool, now *c1ccc(Oc2ccc(C(=O)c3cccc(C(=O)c4ccc(Oc5ccc(N6C(=O)c7ccc(-c8ccc9c(c8)C(=O)N(*)C9=O)cc7C6=O)cc5)cc4)c3)cc2)cc1 (repeat unit)
222.00

// next record *SC(*)(F)F (repeat unit)
-118.00

Entry */C=C/c1cc(OC)c(/C=C/c2ccc(/C=C(\Oc3ccccc3)c3ccc(/C(=C/c4ccc(*)cc4)c4ccc(Oc5ccccc5)cc4)cc3)cc2)cc1OC (repeat unit) please
175.00

Try this compound too: *c1cccc(C(=O)c2ccc(Oc3ccc(N4C(=O)c5ccc(Oc6ccc7c(c6)C(=O)N(*)C7=O)cc5C4=O)cc3)cc2)c1 (repeat unit)
232.00

What do we get for *C1C(=O)N(c2ccccc2C(=O)OCC)C(=O)C1* (repeat unit) ?
230.00

// repeat for *CC(*)c1ccc(B(Oc2ccc(-c3c(F)c(F)c(F)c(F)c3F)c3cccnc23)c2ccc(C(C)(C)C)cc2)cc1 (repeat unit) and report
245.00

// same read-out, input: *CC(*)OC(=O)CC1CCCCC1 (repeat unit)
25.00

Another: *CC(*)c1ccc(Oc2ccccc2)cc1 (repeat unit)
85.00

Would you kindly repeat that for *Oc1ccc(C(=O)OCCCCCCCOC(=O)c2ccc(OC(=O)c3ccc(C(*)=O)cc3)cc2)cc1 (repeat unit) ?
70.00

# repeat for *CCOCCOCCOc1cccc(NC(=O)c2cccc(C(=O)Nc3cccc(O*)c3)c2)c1 (repeat unit)
111.00
